# ASSAY_TARGET: HLA-A*23:01
# ASSAY_SUMMARY: IEDB peptide-MHC binding, purified MHC/competitive/radioactivity; filed as Kd, often an IC50 or EC50 that approximates it; bounds were set here for any values at or beyond the usual limits of such assays
# CONDITION_NOTES: source organism: SARS coronavirus Tor2
pKd: −log10 of the molar value.
# pKd listing for each entry below

SEQUENCE	pKd
VVAIDYRHY	≤ 4.11
ELSPRWYFYY	5.06
EYADVFHLYL	8.02
GTGPEASLPY	≤ 4.15
CTPPALNCY	≤ 4.49
YTGNYQCGHY	≤ 4.15
HSVGFDYVY	≤ 4.11
LSNFGAPSY	≤ 4.11
EIEPKLDGYY	≤ 4.15
QYGSFCTQL	≤ 4.12
ATEETFKLSY	≤ 4.28
FSSLPSYAAY	≤ 4.15
MMSAPPAEY	≤ 4.29
NMVYMPASW	6.15
LTKGTLEPEY	≤ 4.15
KWDLLKYDF	4.90
YYQLESTQI	6.90
VSVKMFDAY	4.98
LTQDLFLPFY	4.74

###

# ASSAY_TARGET: HLA-B*40:02
# ASSAY_SUMMARY: IEDB peptide-MHC binding, purified MHC/competitive/radioactivity; filed as Kd, often an IC50 or EC50 that approximates it; bounds were set here for any values at or beyond the usual limits of such assays
# CONDITION_NOTES: source organism: Lymphocytic choriomeningitis virus (strain Armstrong)
MEASURED_QUANTITY: Kd (µM)

SEQUENCE	MEASURED_QUANTITY	MEASURED_VALUE
AEILPDTTY	Kd	14

###

# ASSAY_TARGET: HLA-A*02:01
# ASSAY_SUMMARY: IEDB peptide-MHC binding, purified MHC/direct/fluorescence; filed as Kd, often an IC50 or EC50 that approximates it; bounds were set here for any values at or beyond the usual limits of such assays
# CONDITION_NOTES: source organism: Mycobacterium tuberculosis str. Haarlem
MEASURED_QUANTITY: Kd

SEQUENCE	MEASURED_QUANTITY	MEASURED_VALUE
MAVTAAPYI	Kd	≥ 20 µM
FHARFVQAL	Kd	≥ 20 µM

###

# ASSAY_TARGET: HLA-B*08:01
# ASSAY_SUMMARY: IEDB peptide-MHC binding, purified MHC/competitive/fluorescence; filed as Kd, often an IC50 or EC50 that approximates it; bounds were set here for any values at or beyond the usual limits of such assays
# CONDITION_NOTES: source organism: Vibrio cholerae MO10

SEQUENCE	Kd
EVNAHIHTM	≥ 20 µM

###

# ASSAY_TARGET: HLA-B*39:01
# ASSAY_SUMMARY: IEDB peptide-MHC binding, purified MHC/competitive/fluorescence; filed as Kd, often an IC50 or EC50 that approximates it; bounds were set here for any values at or beyond the usual limits of such assays
# CONDITION_NOTES: source organism: Plesiomonas shigelloides
pKd: −log10 of the molar value.
MEASURED_QUANTITY: pKd

SEQUENCE	MEASURED_VALUE
LLFRMILNY	≤ 4.70

###

# ASSAY_TARGET: HLA-B*15:17
# ASSAY_SUMMARY: IEDB peptide-MHC binding, purified MHC/competitive/fluorescence; filed as Kd, often an IC50 or EC50 that approximates it; bounds were set here for any values at or beyond the usual limits of such assays
# CONDITION_NOTES: source organism: Vibrio cholerae MO10

SEQUENCE	Kd
EVNAHIHTM	≥ 20 µM

###

# ASSAY_TARGET: HLA-A*24:02
# ASSAY_SUMMARY: IEDB peptide-MHC binding, purified MHC/competitive/radioactivity; filed as Kd, often an IC50 or EC50 that approximates it; bounds were set here for any values at or beyond the usual limits of such assays
# CONDITION_NOTES: source organism: SARS coronavirus Tor2
Below, each of the sequences is paired with its reported Kd value.

SEQUENCE	Kd
CTPPALNCY	≥ 77.6 µM
GTGPEASLPY	≥ 70.3 µM
ELSPRWYFYY	9.44 µM
FSSLPSYAAY	≥ 70.3 µM
LTKGTLEPEY	≥ 70.3 µM
MMSAPPAEY	12.7 µM
HSVGFDYVY	≥ 77.6 µM
ATEETFKLSY	≥ 70.3 µM
VVAIDYRHY	≥ 77.6 µM
YYQLESTQI	0.0077 µM
YTGNYQCGHY	≥ 70.3 µM
EIEPKLDGYY	≥ 70.3 µM
KWDLLKYDF	≥ 28.4 µM
NMVYMPASW	4.02 µM
LSNFGAPSY	≥ 77.6 µM
VSVKMFDAY	10.3 µM
EYADVFHLYL	0.0167 µM
LTQDLFLPFY	10.5 µM
QYGSFCTQL	≥ 107 µM

###

# ASSAY_TARGET: HLA-A*02:01
# ASSAY_SUMMARY: IEDB peptide-MHC binding, purified MHC/direct/fluorescence; filed as Kd, often an IC50 or EC50 that approximates it; bounds were set here for any values at or beyond the usual limits of such assays
# CONDITION_NOTES: source organism: Camelpox virus M-96
MEASURED_QUANTITY: Kd

SEQUENCE	ASSAY_TARGET	MEASURED_VALUE
YQYIFLSFF	HLA-A*02:01	≥ 20 µM
TESDAIRTL	HLA-A*02:01	≥ 20 µM

###

# ASSAY_TARGET: HLA-A*33:01
# ASSAY_SUMMARY: IEDB peptide-MHC binding, purified MHC/competitive/radioactivity; filed as Kd, often an IC50 or EC50 that approximates it; bounds were set here for any values at or beyond the usual limits of such assays
# CONDITION_NOTES: source organism: Mammarenavirus juninense
// reported Kd for each item listed
MEASURED_QUANTITY: Kd

SEQUENCE	MEASURED_QUANTITY	MEASURED_VALUE
PLLCTLNKSH	Kd	≥ 70 µM
PAAEFRRVAH	Kd	≥ 24.4 µM
MTSWLDFSH	Kd	13.6 µM

###

Recorded measurements of pIC50, one per entry
# ASSAY_TARGET: HLA-A*03:01
# ASSAY_SUMMARY: IEDB peptide-MHC binding, purified MHC/competitive/fluorescence; bounds were set here for any values at or beyond the usual limits of such assays
# CONDITION_NOTES: source organism: Zaire ebolavirus
pIC50: −log10 of the molar value.
MEASURED_QUANTITY: pIC50

SEQUENCE	ASSAY_TARGET	VALUE_OPERATOR	MEASURED_VALUE
GGQQKNSQK	HLA-A*03:01	≤	3.93
LTYVQLESR	HLA-A*03:01	=	5.06
KVQRQIQVH	HLA-A*03:01	=	4.75
AMVTLRKER	HLA-A*03:01	=	4.52
ATTELRTFS	HLA-A*03:01	≤	3.91
ATDVPSATK	HLA-A*03:01	=	4.54
DETSSLPPL	HLA-A*03:01	≤	3.48
KAENTNTSK	HLA-A*03:01	≤	3.60

###

# ASSAY_TARGET: HLA-A*11:01
# ASSAY_SUMMARY: IEDB peptide-MHC binding, purified MHC/competitive/radioactivity; filed as Kd, often an IC50 or EC50 that approximates it; bounds were set here for any values at or beyond the usual limits of such assays
# CONDITION_NOTES: source organism: Variola virus
pKd: −log10 of the molar value.
MEASURED_QUANTITY: pKd

SEQUENCE	MEASURED_QUANTITY	MEASURED_VALUE
AVFKNSFLGK	pKd	≤ 4.16

###

# ASSAY_TARGET: HLA-A*02:06
# ASSAY_SUMMARY: IEDB peptide-MHC binding, purified MHC/competitive/radioactivity; filed as Kd, often an IC50 or EC50 that approximates it; bounds were set here for any values at or beyond the usual limits of such assays
# CONDITION_NOTES: source organism: Dengue virus 1 Singapore/S275/1990

SEQUENCE	Kd / nM
TMLDVDLRPA	16.9

###

Item-by-item account of pKd
# ASSAY_TARGET: HLA-B*27:05
# ASSAY_SUMMARY: IEDB peptide-MHC binding, purified MHC/direct/fluorescence; filed as Kd, often an IC50 or EC50 that approximates it; bounds were set here for any values at or beyond the usual limits of such assays
# CONDITION_NOTES: source organism: West Nile virus
pKd: −log10 of the molar value.
MEASURED_QUANTITY: pKd

SEQUENCE	MEASURED_VALUE
KRVQEVKGY	6.11
HSRRSRRSL	≤ 4.70
FTRYRKEAI	≤ 4.70

###

# ASSAY_TARGET: HLA-B*18:01
# ASSAY_SUMMARY: IEDB peptide-MHC binding, purified MHC/competitive/radioactivity; filed as Kd, often an IC50 or EC50 that approximates it; bounds were set here for any values at or beyond the usual limits of such assays
# CONDITION_NOTES: source organism: Mammarenavirus brazilense
MEASURED_QUANTITY: Kd (nM)

SEQUENCE	MEASURED_QUANTITY	MEASUREMENT_UNIT	MEASURED_VALUE
CEMNHVNSM	Kd	nM	467
